System: Venturia inaequalis
Test: Example A apple scab
Type: in vivo
Conditions: 100 PPM, read-out: disease control rating, Ex. A
Please go through the items and note down their pest or weed control at 100 ppm.
Number only, in %; omit the unit.

Asked: Give pest or weed control at 100 ppm (Venturia inaequalis) of the following compound: C=C(c1cccc2ccccc12)C(O)(Cn1cncn1)c1ccc(F)cc1 (stereo not drawn)
Given back: 84

Asked: Ok, now C=C(CO)C(O)(Cn1cncn1)c1ccc(Br)cc1 (stereo not drawn)
Given back: 16

Asked: Same thing, different compound: C=C(c1ccccc1)C(O)(Cn1cncn1)c1ccc(F)cc1 (stereo not drawn)
Given back: 89

Asked: // same read-out, input: C=C(c1ccc(F)cc1)C(O)(Cn1cncn1)c1ccc(-c2ccccc2)cc1 (stereo not drawn)
Given back: 62

Asked: Same question, C=C(c1ccccc1)C(O)(Cn1cncn1)c1ccc(Cl)cc1 (stereo not drawn) this time
Given back: 100

Asked: Also C=C(CN(C)C)C(O)(Cn1cncn1)c1ccc(-c2ccccc2)cc1 (stereo not drawn) ?
Given back: 82

Asked: One more compound: C=C(c1ccc(F)cc1)C(O)(Cn1cncn1)c1ccccc1 (stereo not drawn)
Given back: 93

Asked: What do we get for C=C(CN(C)C)C(O)(Cn1cncn1)c1ccc(Br)cc1 (stereo not drawn) ?
Given back: 64

Asked: What about this compound? C=C(c1ccc(F)cc1)C(O)(Cn1cncn1)c1ccc(OC)cc1 (stereo not drawn)
Given back: 42

###

System: WATERCHESTNUT
Test: Test C rice paddy
Type: in vivo, Eleocharis spp.
Details: Eleocharis, 504 h; 0250 G/HA, 21 days; read-out: plant response
Record form. Attribute: pest or weed control at 250 g/ha. Fill in for each entry.
Could you give me the number in %? Just the number is fine.

Asked: Any idea what pest or weed control at 250 g/ha was measured for C=C(c1ccccc1Cl)C(O)(Cn1cncn1)c1ccc(F)cc1F (centres unmarked) ?
Given back: 60

Asked: Would you kindly repeat that for C=C(c1ccccc1)C(O)(Cn1cncn1)c1ccc(Cl)cc1Cl (centres unmarked) ?
Given back: 0

Asked: Cool, now C=C(c1ccc(Cl)cc1)C(O)(Cn1cncn1)c1ccccc1F (centres unmarked)
Given back: 0

Asked: Please give the result for C=C(c1ccc(F)cc1)C(O)(Cn1ncnc1I)c1ccc(F)cc1F (centres unmarked) too.
Given back: 0

Asked: Now this one: C=C(c1ccccc1Cl)C(O)(Cn1cncn1)c1ccc(Cl)cc1Cl (centres unmarked)
Given back: 0

Asked: Also, C=C(c1cccc(F)c1)C(O)(Cn1cncn1)c1ccc(F)cc1F (centres unmarked) please.
Given back: 0

Asked: Consider next the compound C=C(c1ccc(Cl)cc1Cl)C(O)(Cn1cncn1)c1ccccc1F (centres unmarked) in the same way.
Given back: 40

Asked: Can you check C=C(c1ccc(F)cc1)C(O)(Cn1ncnc1S)c1ccc(F)cc1F (centres unmarked) next?
Given back: 0

###

Tested on: KOCHIA
Assay: Test E
Type: in vivo, Kochia scoparia
Details: POSTEMERGENCE 0250 GM/HA
For each of the molecules below, state its plant response.
A number alone suffices; assume %.

Asked: Which plant response value belongs to C=C(c1ccc(F)cc1)C(O)(Cn1cncn1)c1ccc(F)cc1F (stereo not shown) [Example 4] ?
Given back: 70

Asked: Check C=C(c1ccccc1)C(O)(Cn1cncn1)c1ccc(F)cc1F (stereo not shown) [Example 52] too.
Given back: 0

Asked: Also need C=C(c1ccc(F)cc1)C(O)(Cn1cncn1)c1ccccc1F (stereo not shown) [Example 644] , thanks.
Given back: 50

Asked: // query: C=C(c1ccccc1)C(O)(Cn1cncn1)c1ccc(Cl)cc1 (stereo not shown) [Example 51]
Given back: 0
